The origin of these recorded values is paper PMC10447463.

assay: Conversion rate (CR) assay with fluorescamine
Format: physicochemical
measurementSetup: Fig. S7 panel B; conversion rate, fluorescamine assay
Experimental: For ATR FT–IR spectroscopy measurements, 200 µL of the respective 1 mg/mL PNF solution was lyophilized and the resulting powder used for measurement. All spectra were recorded on a Bruker Tensor 27 spectrometer with a diamond crystal as ATR element (PIKE MiracleTM, spectral resolution 2 cm^-1). Every sample was measured with 64 scans. Data were analyzed with OriginLab software and calculation of β–sheet content was conducted according to a previous report. TEM. […]
quantityMeasured: CR / % (%)
Only the number, expressed in %, is required.

Worked cases, CR / % given:
[
  {
    "substance": "CKIKIQINMWQ",
    "CR / % (%)": 89.1
  },
  {
    "substance": "EIEIQINMWQ",
    "CR / % (%)": 89.9
  },
  {
    "substance": "QCKIKIQINM",
    "CR / % (%)": 89.7
  }
]

Next:
Item CKFKQFF has what recorded CR / %?
90

---

Format: physicochemical
measurementSetup: relative to blank 42.1851851851852 a.u.
Tag: condition met if measured Tht rel to blank (42.1851851851852) is not below 2, condition not met if it is.

// known answers, use as guide
[
  {
    "substance": "KAKAQA [JJA2 / TM153]",
    "labelValue": "condition not met"
  },
  {
    "substance": "CKFKFQFNM [BL3]",
    "labelValue": "condition met"
  },
  {
    "substance": "KIKIQINMW [JGB1 /TM85]",
    "labelValue": "condition met"
  },
  {
    "substance": "KAKAQANM [TM152]",
    "labelValue": "condition not met"
  },
  {
    "substance": "RGDKIKIQI [MG14]",
    "labelValue": "condition met"
  }
]

Test whether the substance KIKIKIKIWW [TM21] records Tht rel to blank (42.1851851851852) of 2 or higher.
condition met

API: above_or_equal(metric=Tht rel to blank (42.1851851851852), cutoff=2) for item CEIEIQINM [TM144]
condition met

Assess whether reported Tht rel to blank (42.1851851851852) for QCKIKQIINM [CK5] sits at 2 or higher.
condition met

Textbook exercise: given the entry QCKFKQFFNM [CK11] , state whether its Tht rel to blank (42.1851851851852) is greater than or equal to 2.
condition met

Record RGDCKIKIQINM [TM45] ; criterion: Tht rel to blank (42.1851851851852) no lower than 2. Met?
condition not met

Is Tht rel to blank (42.1851851851852) at least 2? Consider RGDKIKIQINMWQ [MG9a]
condition not met

hey, is Tht rel to blank (42.1851851851852) for this one >= 2? KIKIQIN [JGB3]
condition not met

For this substance, is measured Tht rel to blank (42.1851851851852) 2 or higher? CKIKQIINMWQ [MG5a / CK17]
condition met

Is reported Tht rel to blank (42.1851851851852) greater than or equal to 2 here: KWKWQW [KB3]
condition not met

Form field: Tht rel to blank (42.1851851851852) at least 2? Entry: KFKFQFF [TG6]
condition met

Can CQFQFQF [QBL4] be said to have Tht rel to blank (42.1851851851852) at or above 2?
condition met

Quick check, Tht rel to blank (42.1851851851852) >= 2? CKIKIQINM [MG2]
condition met

Answer whether Tht rel to blank (42.1851851851852) of CKWKWQW [KB4] is greater than or equal to 2.
condition not met

---

Type: physicochemical
measurementSetup: ThT fluorescence category; 1 if Rel. ThT >2
quantityMeasured: ThT Cat.

Example cases with answers are listed next.
[
  {
    "substance": "CKIKQIINMWQ",
    "ThT Cat.": "1 (ThT. Cat is 1, if Rel. ThT >2)"
  },
  {
    "substance": "KIKIQINAWQ",
    "ThT Cat.": "1 (ThT. Cat is 1, if Rel. ThT >2)"
  },
  {
    "substance": "KIKQIIN",
    "ThT Cat.": "0 (ThT-inactive (N-Fold <2))"
  },
  {
    "substance": "CKIKQII",
    "ThT Cat.": "1 (ThT. Cat is 1, if Rel. ThT >2)"
  },
  {
    "substance": "MKIKIQINM",
    "ThT Cat.": "0 (ThT-inactive (N-Fold <2))"
  }
]

Please give the measured ThT Cat. for this substance: CKWKWQW
0 (ThT-inactive (N-Fold <2))

# ThT Cat. lookup, item KIKIKIQI
1 (ThT. Cat is 1, if Rel. ThT >2)

Returns the measured ThT Cat. for the input substance. Input: KFKFEFEF
1 (ThT. Cat is 1, if Rel. ThT >2)

Which ThT Cat. reading was recorded for the substance KIKIQINMWA ?
0 (ThT-inactive (N-Fold <2))

Look up ThT Cat. for this substance: CQFQFQF
1 (ThT. Cat is 1, if Rel. ThT >2)

What value of ThT Cat. has been reported for the following substance? ILKNLSRSRKIKIQIC
1 (ThT. Cat is 1, if Rel. ThT >2)

What ThT Cat. value was documented for this substance, KIKIQIN ?
0 (ThT-inactive (N-Fold <2))

Look up ThT Cat.: RGDSGGGGGGKIKIQIC
1 (ThT. Cat is 1, if Rel. ThT >2)

Requested field: ThT Cat.. Item: KIKIQINM
0 (ThT-inactive (N-Fold <2))

So what's the measured ThT Cat. for this one? CKIKIQINMWQ
1 (ThT. Cat is 1, if Rel. ThT >2)

Requested read-out: ThT Cat.. Entry: HHHHKAKAKAKAYYYY
0 (ThT-inactive (N-Fold <2))

Field request: ThT Cat. | item: KYKYQY
1 (ThT. Cat is 1, if Rel. ThT >2)

# query: ThT Cat. of entry CKFKFQFNMW
1 (ThT. Cat is 1, if Rel. ThT >2)

So what's the measured ThT Cat. for this one? HHHHEIEIEIEI
1 (ThT. Cat is 1, if Rel. ThT >2)

Reported ThT Cat., substance KIKIQINMAQ : ____
0 (ThT-inactive (N-Fold <2))

May I ask what ThT Cat. has been recorded for RGDKIKIQINMWQ ?
0 (ThT-inactive (N-Fold <2))

Consider the substance KIKIQIC and give its measured ThT Cat..
1 (ThT. Cat is 1, if Rel. ThT >2)

Consider the substance RGDSKIKIQIC and give its measured ThT Cat..
1 (ThT. Cat is 1, if Rel. ThT >2)

---

assay: Turbidity, derived count rate of scattered light
Type: physicochemical
measurementSetup: derived count rate of scattered light (turbidity)
Listing: Count Rate of selected substances
Reply briefly: the number, and no unit.

[
  {
    "substance": "NMWQKIKIQI",
    "Count Rate": 10024.06667
  }
]

Which Count Rate reading was recorded for the substance FDPFDPFDP ?
258

For the substance shown here, RGDKIKIQINM , give the reported Count Rate.
57.2

# lookup: Count Rate of MDQMDQMDQMDQMDQ
9.6

Need Count Rate, item KIKQII
122

Fill in the blank: the reported Count Rate of NMWQKFKFQF is ____.
14045.43333

For the substance RGECKFKFQF , what Count Rate is on record?
219.3

Which measured Count Rate value corresponds to KFKFQFNMW ?
610.2

May I ask what Count Rate has been recorded for RLRLTLC ?
125.6

---

assay: Zeta-potential measurement
Format: physicochemical
measurementSetup: zeta-potential of the peptide assemblies; mean; Figure 3A source data
quantityMeasured: Zeta-Potential / mV (mV)
Field: numeric (mV). Do not append units.

Some substances with known Zeta-Potential / mV results, for comparison:
[
  {
    "substance": "CKIKIQINM",
    "Zeta-Potential / mV (mV)": 16.83
  },
  {
    "substance": "KIKIQIW",
    "Zeta-Potential / mV (mV)": 12.5
  },
  {
    "substance": "HHHHKAKAKAKAWWWW",
    "Zeta-Potential / mV (mV)": 17.4
  },
  {
    "substance": "HIHIQIC",
    "Zeta-Potential / mV (mV)": -3.69
  },
  {
    "substance": "FKFDKFKFDK",
    "Zeta-Potential / mV (mV)": -12.7
  },
  {
    "substance": "KIKIQINMAQ",
    "Zeta-Potential / mV (mV)": 3.07
  }
]

Request the reported Zeta-Potential / mV associated with CKFKQFF
11.56

What Zeta-Potential / mV value was documented for this substance, HHHHKIKIQINMYYYY ?
7.81
